# system tested: T1, CAPRIN-1 protein expressed on the membrane surface of human cancer cells (human, UniProt Q14444 2-709)
# T1 sequence (looked up): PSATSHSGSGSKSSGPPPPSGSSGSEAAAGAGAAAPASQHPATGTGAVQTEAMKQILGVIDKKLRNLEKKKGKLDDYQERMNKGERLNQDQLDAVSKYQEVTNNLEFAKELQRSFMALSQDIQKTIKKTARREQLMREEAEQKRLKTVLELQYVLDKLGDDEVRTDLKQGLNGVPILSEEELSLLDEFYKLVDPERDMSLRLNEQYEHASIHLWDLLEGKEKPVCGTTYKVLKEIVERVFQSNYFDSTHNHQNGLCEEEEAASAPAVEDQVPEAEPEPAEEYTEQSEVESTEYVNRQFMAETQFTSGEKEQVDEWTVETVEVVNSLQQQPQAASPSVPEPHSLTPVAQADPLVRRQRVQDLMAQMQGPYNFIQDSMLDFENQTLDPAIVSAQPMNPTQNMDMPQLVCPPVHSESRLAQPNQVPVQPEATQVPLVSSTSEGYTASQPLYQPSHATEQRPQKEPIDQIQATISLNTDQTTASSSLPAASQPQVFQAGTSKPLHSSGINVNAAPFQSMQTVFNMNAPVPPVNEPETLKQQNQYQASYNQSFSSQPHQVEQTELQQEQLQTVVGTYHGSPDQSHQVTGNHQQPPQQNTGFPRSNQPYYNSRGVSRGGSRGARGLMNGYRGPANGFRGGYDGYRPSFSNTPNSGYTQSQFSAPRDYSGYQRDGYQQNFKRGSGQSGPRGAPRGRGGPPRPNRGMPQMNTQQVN
# protocol text: cell-based or functional assay
metric: ADCC cytotoxic activity (51Cr release) on MDA-MB-361

**Query** For the binder humanized antibody #6 (antibody, V domains shown) VH: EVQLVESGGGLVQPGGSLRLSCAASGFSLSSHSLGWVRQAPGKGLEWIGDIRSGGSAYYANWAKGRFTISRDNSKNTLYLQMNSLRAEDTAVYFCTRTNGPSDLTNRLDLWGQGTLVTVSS VL: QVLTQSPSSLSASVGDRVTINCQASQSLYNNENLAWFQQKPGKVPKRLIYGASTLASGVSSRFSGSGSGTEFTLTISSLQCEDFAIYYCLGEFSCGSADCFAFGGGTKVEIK , what ADCC cytotoxic activity (51Cr release) on MDA-MB-361 is on record?
**Result** ≥ 52%

**Query** Can you handle humanized antibody #5 (antibody, V domains shown) VH: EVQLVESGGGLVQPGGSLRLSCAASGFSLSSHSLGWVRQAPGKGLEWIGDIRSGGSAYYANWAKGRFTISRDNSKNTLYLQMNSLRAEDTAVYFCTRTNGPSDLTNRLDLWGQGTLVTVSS VL: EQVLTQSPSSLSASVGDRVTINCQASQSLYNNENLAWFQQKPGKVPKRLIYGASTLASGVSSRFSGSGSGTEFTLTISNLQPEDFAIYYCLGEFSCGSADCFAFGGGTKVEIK next?
**Result** ≥ 45%

**Query** Can you handle human-rabbit chimeric anti-CAPRIN-1 antibody (antibody, V domains shown) VH: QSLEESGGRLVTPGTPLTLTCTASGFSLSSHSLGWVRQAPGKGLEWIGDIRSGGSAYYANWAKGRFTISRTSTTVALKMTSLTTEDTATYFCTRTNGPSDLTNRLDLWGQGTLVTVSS VL: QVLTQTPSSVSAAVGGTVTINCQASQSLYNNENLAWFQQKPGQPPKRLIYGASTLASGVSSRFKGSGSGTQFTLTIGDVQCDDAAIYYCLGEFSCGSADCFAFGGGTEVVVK next?
**Result** ≥ 40%

**Query** Can you handle humanized antibody #2 (antibody, V domains shown) VH: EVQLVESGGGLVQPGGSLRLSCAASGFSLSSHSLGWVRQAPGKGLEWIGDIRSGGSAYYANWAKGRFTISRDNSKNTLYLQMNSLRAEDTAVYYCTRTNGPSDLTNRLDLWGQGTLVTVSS VL: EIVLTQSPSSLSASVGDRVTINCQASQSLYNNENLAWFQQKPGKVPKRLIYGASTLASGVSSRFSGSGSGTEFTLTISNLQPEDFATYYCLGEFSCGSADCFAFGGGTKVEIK next?
**Result** ≥ 45%

**Query** Can you handle humanized antibody #10 (antibody, V domains shown) VH: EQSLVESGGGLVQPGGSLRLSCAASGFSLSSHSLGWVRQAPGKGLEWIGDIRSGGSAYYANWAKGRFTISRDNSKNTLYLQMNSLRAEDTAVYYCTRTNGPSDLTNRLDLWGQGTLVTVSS VL: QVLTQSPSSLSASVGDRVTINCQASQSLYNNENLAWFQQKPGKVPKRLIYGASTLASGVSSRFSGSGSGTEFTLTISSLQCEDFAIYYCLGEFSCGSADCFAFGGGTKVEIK next?
**Result** ≥ 52%

**Query** Can you handle humanized antibody #3 (antibody, V domains shown) VH: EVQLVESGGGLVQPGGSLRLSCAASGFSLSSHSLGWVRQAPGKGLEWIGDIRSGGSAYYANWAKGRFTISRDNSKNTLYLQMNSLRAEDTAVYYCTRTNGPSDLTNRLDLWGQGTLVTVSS VL: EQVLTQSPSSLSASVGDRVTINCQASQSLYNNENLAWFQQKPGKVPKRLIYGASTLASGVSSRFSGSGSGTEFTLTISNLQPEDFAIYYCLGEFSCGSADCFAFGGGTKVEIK next?
**Result** ≥ 45%

**Query** Can you handle humanized antibody #0 (antibody, V domains shown) VH: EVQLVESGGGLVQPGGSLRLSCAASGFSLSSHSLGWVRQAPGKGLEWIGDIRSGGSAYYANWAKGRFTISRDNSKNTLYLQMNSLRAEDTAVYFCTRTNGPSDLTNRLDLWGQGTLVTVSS VL: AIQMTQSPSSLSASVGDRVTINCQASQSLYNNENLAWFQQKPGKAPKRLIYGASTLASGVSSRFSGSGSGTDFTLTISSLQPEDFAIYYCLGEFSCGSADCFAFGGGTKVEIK next?
**Result** ≥ 40%
